Taken from ChEMBL document CHEMBL1201862.

Test system: UACC-257
Experiment: NCI tumour cell line growth inhibition, 48 h
The source made the active and inactive calls. Rule as the data show it: active = GI50 up to about 1.1 µM and inactive = higher.
measurement name: GI50

CCOC(=O)c1ccc(N(CCOS(C)(=O)=O)CCOS(C)(=O)=O)cc1 | > 100 µM (inactive)
CCOC(=O)NC(=S)NN(C)C1=NCC(C)(C)S1 | > 100 µM (inactive)
COC(=O)C12C3C=CC(O3)C1C1C=CC2O1 (stereo not given) | > 100 µM (inactive)
O=c1[nH]c(=O)n(C2CC(O)C(CO)O2)c2nc3ccc4cc5ccccc5cc4c3nc12 (stereo not given) | > 100 µM (inactive)
COc1cc(S(=O)(=O)Nc2nc(-c3ccc(N)cc3)cs2)ccc1Cl | 57.3 µM (inactive)
O=c1cc(-c2ccccc2)nc(-n2[nH]c3c(c2=O)CCCC3)[nH]1 | 5.86 µM (inactive)
COc1cc2cc(C(=O)N3CC(CCl)c4ccc([N+](C)(C)Cc5ccccc5[N+](=O)[O-])cc43)[nH]c2c(OC)c1OC (stereo not given) | 1.66 µM (inactive)
COC(=O)C1C(=O)CC(C)(O)C(C(=O)OC)C1c1ccc(N(C)C)cc1 (stereo not given) | > 100 µM (inactive)
O=C(OC1C#CCSCC#C/C=C\1)c1cnc2ccccc2n1 (stereo not given) | > 100 µM (inactive)
CN(C)C(=S)/N=c1\ss/c(=N\C(=S)N(C)C)n1-c1cccc(Cl)c1 | > 100 µM (inactive)
